system: Histamine H1 receptor (Cavia porcellus)
testName: Antagonist activity at histamine H1 receptor in guinea pig ileum assessed as […]
readoutType: pD'2
// keep it numeric: no unit symbol after the value

Ask: Identify pD'2 associated with the compound N=C(NCCCc1c[nH]cn1)NC(=O)CC(c1ccccc1)c1ccc(F)cc1 (stereo not given)
Result: 5.39

Ask: Identify pD'2 associated with the compound N=C(NCCCc1c[nH]cn1)NC(=O)CC(c1ccccc1)c1ccccc1
Result: 5.2

Ask: Identify pD'2 associated with the compound N=C(NCCCc1c[nH]cn1)NC(=O)CC(c1ccccc1)c1ccc(F)c(F)c1 (stereo not given)
Result: 6.06

Ask: Identify pD'2 associated with the compound N=C(NCCCc1c[nH]cn1)NC(=O)CC(c1ccc(F)cc1)c1ccc(F)cc1
Result: 5.95

Ask: Identify pD'2 associated with the compound N=C(NCCc1c[nH]cn1)NC(=O)CC(c1ccccc1)c1ccccc1
Result: 4.55

###

system: Histamine H2 receptor (Cavia porcellus) (UniProt P47747)
Sequence (P47747 whole entry): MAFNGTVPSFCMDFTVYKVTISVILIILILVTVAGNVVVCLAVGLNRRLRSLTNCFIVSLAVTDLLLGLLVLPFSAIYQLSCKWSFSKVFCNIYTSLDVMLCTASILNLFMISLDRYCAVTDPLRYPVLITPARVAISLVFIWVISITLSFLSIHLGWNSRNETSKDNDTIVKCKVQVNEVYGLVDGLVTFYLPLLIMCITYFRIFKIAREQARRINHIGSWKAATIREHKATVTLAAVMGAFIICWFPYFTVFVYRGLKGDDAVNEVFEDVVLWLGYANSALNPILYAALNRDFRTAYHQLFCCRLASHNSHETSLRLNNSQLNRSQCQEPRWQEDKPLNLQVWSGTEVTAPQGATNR
testName: Agonist activity at histamine H2 receptor in guinea pig spontaneously beating right atrium assessed as positive chronotropic activity relative to histamine
Format: functional, tissue-based
assayConditions: Cardiac atrium
I'd appreciate it if you could label each record using Activity and these ranges: lower segment: < 500%; middle segment: ≥ 500% and < 2000%; upper segment: ≥ 2000%

Ask: Any idea which band N=C(NCCCc1c[nH]cn1)NC(=O)CC1CCCCC1 is in?
Result: middle segment

Ask: Any idea which band N=C(NCCCc1c[nH]cn1)NC(=O)CCCCc1ccccc1 is in?
Result: lower segment

Ask: Any idea which band N=C(NCCCc1c[nH]cn1)NC(=O)CCCC1CCCCC1 is in?
Result: lower segment

Ask: Any idea which band CC(CC(=O)NC(=N)NCCCc1c[nH]cn1)c1nccs1 (stereo unspecified) is in?
Result: upper segment

Ask: Any idea which band N=C(NCCCc1c[nH]cn1)NC(=O)CCc1ccccc1 is in?
Result: middle segment

Ask: Any idea which band N=C(NCCc1c[nH]cn1)NC(=O)CC(c1ccccc1)c1ccccc1 is in?
Result: lower segment

Ask: Any idea which band N=C(NCCCc1c[nH]cn1)NC(=O)CC(c1ccc(F)cc1)c1ccccn1 (stereo unspecified) is in?
Result: upper segment

Ask: Any idea which band N=C(NCCCc1c[nH]cn1)NC(=O)CC(c1ccccc1)c1ccccc1 is in?
Result: upper segment

Ask: Any idea which band CC(CC(=O)NC(=N)NCCCc1c[nH]cn1)C1CCCCC1 (stereo unspecified) is in?
Result: middle segment

Ask: Any idea which band N=C(NCCCc1c[nH]cn1)NC(=O)CCC1CCCCC1 is in?
Result: middle segment

###

system: Histamine H1 receptor (Homo sapiens)
testName: Antagonist activity at histamine H1 receptor in human U373 MG cells assessed as inhibition of histamine-induced intracellular calcium level preincubated for 15 mins prior to histamine challenge
Type: functional, cell-based
assayConditions: U-373MG ATCC
Entry flag: label 1 if Kb reaches 3000 nM; label 0 if it does not.

Ask: Is it the case that N=C(NCCCc1c[nH]cn1)NC(=O)CC(c1ccc(F)c(F)c1)c1nccs1 (centres undefined) has Kb reaching or exceeding 3000 nM?
Result: label 1

Ask: Is it the case that N=C(NCCCc1c[nH]cn1)NC(=O)CCC1CCCCC1 has Kb reaching or exceeding 3000 nM?
Result: label 0

Ask: Is it the case that N=C(NCCCc1c[nH]cn1)NC(=O)CC(c1ccc(F)c(F)c1)c1ncc[nH]1 (centres undefined) has Kb reaching or exceeding 3000 nM?
Result: label 1

Ask: Is it the case that N=C(NCCCc1c[nH]cn1)NC(=O)CCc1ccccc1 has Kb reaching or exceeding 3000 nM?
Result: label 1

Ask: Is it the case that Cc1[nH]cnc1CSCC(=O)NC(=N)NCCCc1c[nH]cn1 has Kb reaching or exceeding 3000 nM?
Result: label 1

Ask: Is it the case that N=C(NCCCc1c[nH]cn1)NC(=O)CC(c1ccc(F)cc1)c1ccc(F)cc1 has Kb reaching or exceeding 3000 nM?
Result: label 0

Ask: Is it the case that N=C(NCCCc1c[nH]cn1)NC(=O)CC(c1ccc(F)c(F)c1)c1nccn1Cc1ccccc1 (centres undefined) has Kb reaching or exceeding 3000 nM?
Result: label 0

Ask: Is it the case that N=C(NCCCc1c[nH]cn1)NC(=O)Cc1ccccc1 has Kb reaching or exceeding 3000 nM?
Result: label 0

###

system: Histamine H2 receptor (Cavia porcellus, UniProt P47747)
Sequence (P47747 whole entry): as above
testName: Agonist activity at histamine H2 receptor in guinea pig spontaneously beating right atrium assessed as positive chronotropic activity
Format: functional, tissue-based, Cardiac atrium
Kindly state EC50 for each of the entries shown.
Your answer should be a number followed by the unit of measure.

Ask: Identify EC50 associated with the compound Cc1[nH]cnc1CSCCNC(=N)NCCCc1c[nH]cn1
Result: 20 nM

Ask: Identify EC50 associated with the compound CC(CC(=O)NC(N)=NCCCc1cnc[nH]1)C1CCCCC1 (configuration not stated)
Result: 67.6 nM

Ask: Identify EC50 associated with the compound N=C(NCCCc1c[nH]cn1)NC(=O)CCCCc1ccccc1
Result: 468 nM

Ask: Identify EC50 associated with the compound N=C(NCCCc1c[nH]cn1)NC(=O)c1ccccc1
Result: 1170 nM

Ask: Identify EC50 associated with the compound CC(CC(=O)NC(N)=NCCCc1cnc[nH]1)c1ccccc1 (configuration not stated)
Result: 15.8 nM

Ask: Identify EC50 associated with the compound NC(=NCCCc1cnc[nH]1)NC(=O)CC(c1ccc(F)c(F)c1)c1ncc[nH]1 (configuration not stated)
Result: 97.7 nM

Ask: Identify EC50 associated with the compound NC(=NCCCc1cnc[nH]1)NC(=O)CC(c1ccc(F)cc1)c1ccccn1 (configuration not stated)
Result: 33.9 nM

Ask: Identify EC50 associated with the compound N=C(NCCCc1c[nH]cn1)NC(=O)CCCc1ccccc1
Result: 56.2 nM

Ask: Identify EC50 associated with the compound NC(=NCCCc1cnc[nH]1)NC(=O)Cc1ccccc1
Result: 182 nM

Ask: Identify EC50 associated with the compound N=C(NCCCc1c[nH]cn1)NC(=O)CCCC1CCCCC1
Result: 372 nM

Ask: Identify EC50 associated with the compound N=C(NCCCc1c[nH]cn1)NC(=O)CC(c1ccccc1)c1ccccn1 (configuration not stated)
Result: 51.3 nM

Ask: Identify EC50 associated with the compound NC(=NCCCc1cnc[nH]1)NC(=O)CC(c1ccc(Br)cc1)c1ccc(Br)cc1
Result: 776 nM

Ask: Identify EC50 associated with the compound CC(CC(=O)NC(N)=NCCCc1cnc[nH]1)c1cccs1 (configuration not stated)
Result: 38 nM

Ask: Identify EC50 associated with the compound NC(=NCCCc1cnc[nH]1)NC(=O)CC(c1ccccc1)c1ccc(F)c(F)c1 (configuration not stated)
Result: 53.7 nM

Ask: Identify EC50 associated with the compound NC(=NCCCc1cnc[nH]1)NC(=O)CC(c1ccccc1)c1ccccc1
Result: 28.2 nM

Ask: Identify EC50 associated with the compound N=C(NCCCc1c[nH]cn1)NC(=O)CC(c1ccc(F)cc1)c1ccc(F)cc1
Result: 204 nM

Ask: Identify EC50 associated with the compound N=C(NCCCc1c[nH]cn1)NC(=O)CCc1ccccc1
Result: 166 nM

Ask: Identify EC50 associated with the compound CC(C(=O)NC(N)=NCCCc1cnc[nH]1)c1ccccc1 (configuration not stated)
Result: 3630 nM

Ask: Identify EC50 associated with the compound NC(=NCCCc1cnc[nH]1)NC(=O)CC1CCCCC1
Result: 100 nM

Ask: Identify EC50 associated with the compound NC(=NCCCc1cnc[nH]1)NC(=O)CCC1CCCCC1
Result: 61.7 nM

Ask: Identify EC50 associated with the compound N=C(NCCCc1c[nH]cn1)NC(=O)CC(c1ccc(F)c(F)c1)c1nccs1 (configuration not stated)
Result: 50.1 nM

Ask: Identify EC50 associated with the compound N=C(NCCCc1c[nH]cn1)NC(=O)CC(c1ccccc1)c1ccc(F)cc1 (configuration not stated)
Result: 55 nM

Ask: Identify EC50 associated with the compound CC(C(=O)NC(N)=NCCCc1cnc[nH]1)C1CCCCC1 (configuration not stated)
Result: 138 nM

Ask: Identify EC50 associated with the compound NC(=NCCCc1cnc[nH]1)NC(=O)CC(c1ccc(Cl)cc1)c1ccc(Cl)cc1
Result: 309 nM

Ask: Identify EC50 associated with the compound Cc1nc[nH]c1CSCC(=O)NC(N)=NCCCc1cnc[nH]1
Result: 30.9 nM

Ask: Identify EC50 associated with the compound NC(=NCCCc1cnc[nH]1)NC(=O)C1CCCCC1
Result: 47.9 nM

Ask: Identify EC50 associated with the compound CC(CC(=O)NC(N)=NCCCc1cnc[nH]1)c1nccs1 (configuration not stated)
Result: 38.9 nM
